Data provenance is ChEMBL document CHEMBL4152194.

test system: Pichia kudriavzevii; assay: Antifungal activity against Candida krusei ATCC 20298 after 48 hrs by microbroth dilution assay; type: functional; conditions: ATCC 20298, 48 h
measuredEndpoint: MIC

Sample answers from the record:
1) C/C(=N\Nc1nc(-c2ccc(Cl)cc2)cs1)c1ccc(N)cc1 : > 250 µM
2) CC(C)(C)/C=N/NC(N)=S : > 250 µM
3) Clc1ccc(-c2csc(N/N=C/C=C/c3ccccc3)n2)cc1 : > 250 µM
4) C[C@@H]1[C@H](O)[C@@H](C)/C=C/C=C/C=C/C=C/C=C/C=C/C=C/[C@H](O[C@@H]2O[C@H](C)[C@@H](O)[C@H](N)[C@@H]2O)C[C@@H]2O[C@](O)(C[C@@H](O)C[C@@H](O)[C@H](O)CC[C@@H](O)C[C@@H](O)CC(=O)O[C@H]1C)C[C@H](O)[C@H]2C(=O)O [AMPHOTERICIN B] : 0.5 µM
5) COc1ccc(-c2csc(N/N=C(C)/C=C/c3ccc(O)c(OC)c3)n2)cc1 : 250 µM
6) COc1cc(/C=C/C(C)=N/NC(N)=S)ccc1O : > 250 µM
7) CC(C)(C)/C=N/Nc1nc(-c2ccccc2)cs1 : 5.8 µM
8) COc1cc(/C=C/C(C)=N/Nc2nc(-c3ccccc3)cs2)ccc1O : 250 µM

// next entry
**Query** Notebook entry, Pichia kudriavzevii assay: MIC of `CCC/C(CC)=N/NC(N)=S` = ?
**Result** > 250 µM

----------
system: Cryptococcus neoformans; assay: Antifungal activity against Cryptococcus neoformans ATCC 24067 after 72 hrs by microbroth dilution assay; type: functional; details: ATCC 24067, 72 h
measuredEndpoint: MIC (µM)
Give bare numbers, in µM.

1) CCC(C)n1ncn(-c2ccc(N3CCN(c4ccc(OCC5COC(Cn6cncn6)(c6ccc(Cl)cc6Cl)O5)cc4)CC3)cc2)c1=O (stereo not given) : 0.04
2) OC(Cn1cncn1)(Cn1cncn1)c1ccc(F)cc1F : 6.2
3) CC(C)(C)/C=N/Nc1nc(-c2ccccc2)cs1 : 1.9

State recorded MIC for all listed compounds.
1. COc1cc(/C=C/C(C)=N/Nc2nc(-c3ccccc3)cs2)ccc1O
2. COc1ccc(-c2csc(N/N=C(C)/C=C/c3ccc(O)c(OC)c3)n2)cc1

**Result**
1. 250
2. 250

----------
Consider the following compounds; for each one, report its MIC.
system: Pichia kudriavzevii; test: Antifungal activity against Candida krusei ATCC 20298 after 48 hrs by microbroth dilution assay; assay type: functional; conditions: ATCC 20298, 48 h
Numbers only, in µM.

Sample answers from the record:
1. COc1cc(/C=C/C(C)=N/Nc2nc(-c3ccc(Cl)cc3)cs2)ccc1O : 250
2. OC(Cn1cncn1)(Cn1cncn1)c1ccc(F)cc1F : 104

// next entry
**Query** Give the measured MIC of CCC(C)n1ncn(-c2ccc(N3CCN(c4ccc(OCC5COC(Cn6cncn6)(c6ccc(Cl)cc6Cl)O5)cc4)CC3)cc2)c1=O (stereo not drawn) .
**Result** 0.18

----------
Consider the following molecules; for each one, report its viability at 72 h, 250 µM.
assay: Cytotoxicity against human HEK293 cells assessed as cell viability at 250 uM after 72 hrs by MTT assay relative to control; type: cell-based; settings: read-out: Activity
Give bare numbers, in %.

1. OC(Cn1cncn1)(Cn1cncn1)c1ccc(F)cc1F [FLUCONAZOLE] : 99.2

// next entry
**Query** Give the measured viability at 72 h, 250 µM of CCC(C)n1ncn(-c2ccc(N3CCN(c4ccc(OCC5COC(Cn6cncn6)(c6ccc(Cl)cc6Cl)O5)cc4)CC3)cc2)c1=O (configuration not stated) [ITRACONAZOLE] .
**Result** 90.8

----------
Consider the following molecules; for each one, report its MIC.
tested on: Candida parapsilosis; experiment: Antifungal activity against Candida parapsilosis ATCC 22019 after 48 hrs by microbroth dilution assay; format: functional; conditions: Lodderomyces parapsilosis, ATCC 22019, 48 h
Answers are plain numbers, in µM.

Sample answers from the record:
1) COc1ccc(-c2csc(N/N=C(C)/C=C/c3ccc(O)c(OC)c3)n2)cc1 : 250
2) COc1cc(/C=C/C(C)=N/Nc2nc(-c3ccc(Cl)cc3)cs2)ccc1O : 250
3) COc1cc(/C=C/C(C)=N/Nc2nc(-c3ccccc3)cs2)ccc1O : 250

// next entry
**Query** Give the measured MIC of CCC(C)n1ncn(-c2ccc(N3CCN(c4ccc(OCC5COC(Cn6cncn6)(c6ccc(Cl)cc6Cl)O5)cc4)CC3)cc2)c1=O (centres undefined) .
**Result** 0.18
